target: T1, recombinant SARS-CoV-2 Spike RBD domain, BA.2.75.2 variant (SARS-CoV-2); assay: ELISA on coated RBD
T1 construct: also called RBD BA.2.75.2 variant
Readout: Binding AUC

[in] What value of Binding AUC has been recorded for this entry: SPK002M C3 antibody (antibody, human IgG1, kappa, V domains shown) VH: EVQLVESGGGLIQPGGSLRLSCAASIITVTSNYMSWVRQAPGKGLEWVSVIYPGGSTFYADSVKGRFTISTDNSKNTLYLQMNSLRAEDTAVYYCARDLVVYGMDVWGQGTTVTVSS VL: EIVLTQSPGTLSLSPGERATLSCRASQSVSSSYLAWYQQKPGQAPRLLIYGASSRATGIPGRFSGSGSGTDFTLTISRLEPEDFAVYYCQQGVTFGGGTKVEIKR
[out] 29
